test-system: CRF1 (Homo sapiens, UniProt P34998)
Sequence (P34998 24-415): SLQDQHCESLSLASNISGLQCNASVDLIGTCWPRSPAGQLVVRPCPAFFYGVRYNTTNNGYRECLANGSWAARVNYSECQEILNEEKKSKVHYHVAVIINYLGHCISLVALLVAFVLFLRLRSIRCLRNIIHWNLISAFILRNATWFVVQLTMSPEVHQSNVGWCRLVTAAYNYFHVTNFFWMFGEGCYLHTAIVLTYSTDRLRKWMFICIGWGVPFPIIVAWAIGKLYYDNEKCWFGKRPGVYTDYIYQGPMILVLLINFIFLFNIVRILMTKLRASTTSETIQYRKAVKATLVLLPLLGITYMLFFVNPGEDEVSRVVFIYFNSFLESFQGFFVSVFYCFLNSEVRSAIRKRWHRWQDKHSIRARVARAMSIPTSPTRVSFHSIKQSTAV
method-description: CRF1 binding (Ki)
experimental-conditions: Tertiary; read-out: CRF1 Ki
Here the recorded pKi is given for each entry.
Expect pKi as a plain number equal to -log10 of the molar concentration.

Some solved entries appear below for comparison.
compound	pKi
CCC(COC)n1nnc2c(Nc3ccc(OC)cc3C)nc(C)cc21 (stereo not shown)	8.15
CCC(COC)n1nnc2c(N(C)c3c(C)cc(C)cc3C)nc(C)nc21 (stereo not shown)	7.60
CCC(COC)n1nnc2c(Nc3ccc(OC)cc3C)nc(C)nc21 (stereo not shown)	7.82
CCC(COC)n1nnc2c(Nc3ccc(Cl)cc3C)nc(C)nc21 (stereo not shown)	7.82

Proceeding to the next compound to report its pKi.
Problem: Consider the compound CCC(COC)Nc1nc(C)nc2c1nnn2-c1ccc(OC)cc1C (stereo not shown) and give its measured pKi.
Solution: 7.52
